Origin of the recorded values: PubChem BioAssay AID1996

- MEASUREMENT_CONTEXT: buffer; pH 7.4; 200.0 µM
MEASUREMENT_NAME: solubility kinetic (µg/mL)
Just the number in µg/mL, nothing appended.

Recorded results for 5 compounds are shown here.
Documented solubility kinetic of CCn1cnc2c1c(=O)[nH]c(=O)n2Cc1ccccc1 : 34.6

Record summary for O=C(/C=C/c1ccco1)NC(=S)Nc1ccccc1 : reported solubility kinetic = 17.2

# compound CC(C)Oc1ccc(C(=O)CCN2CCOCC2)cc1 ; its solubility kinetic = 32.8

Lab note: CCOC(=O)C1CCN(S(=O)(=O)c2ccc(C)c(C)c2)CC1 gave solubility kinetic of 4.5

Sure, the documented solubility kinetic for CCn1c(CCl)nc2cc(S(=O)(=O)N3CCOCC3)ccc21 is 12.9

Others:
// solubility kinetic value for Clc1ccc(CNc2ncccn2)cc1 : 24.4

Quick note, solubility kinetic for CCOC(=O)c1c(NC(=S)Nc2cccnc2)sc(C)c1C landed at 20.1

Briefly, solubility kinetic measured for O=C(/C=C/c1ccccc1)NCc1ccc2c(c1)OCO2 : 2.5

Short answer for COC(=O)C1Cc2ccccc2CN1S(=O)(=O)c1ccc(C)cc1 (stereo not given) : solubility kinetic was 19.6

Quick note, solubility kinetic for Cc1ccccc1C(=O)NC1CCCCCCC1 landed at 30.2

The recorded solubility kinetic for entry O=C(Nc1ccc2ccccc2n1)C1CCCCC1 equals 26.6

Field solubility kinetic (entry Cc1[nH]c2ccccc2c1/C=C/C(=O)c1ccncc1 ) reads 0.7

* * *

- MEASUREMENT_CONTEXT: buffer; pH 7.4; 200.0 µM
MEASUREMENT_NAME: solubility kinetic

The cases that follow already have their solubility kinetic on record.
Item: OC1C2CN3CN(C2)CC1(c1ccccc1)C3 (configuration not stated) | solubility kinetic: > 34.5 µg/mL

The recorded solubility kinetic for entry CC(C)(C)OC(=O)N1CCC(CNC(=O)c2ccc(F)cc2)CC1 equals > 50.5 µg/mL

Entry CN1CCN(C(=O)c2ccc(-c3ccc(Br)cc3)o2)CC1 ; solubility kinetic = > 52.4 µg/mL

Per the record, COc1ccc(C(=O)NCC(=O)N2CCNC(=O)C2)cc1OC has solubility kinetic of > 48.2 µg/mL

New cases:
GET /value?item= COc1ccc(OC)c(Cc2nnc(CCC(=O)N3CCCCCC3)o2)c1 &field=solubility kinetic returns > 56 µg/mL

Per the record, Cc1ccc(Cl)cc1NC(=O)CCCN1C(=O)c2cccnc2C1=O has solubility kinetic of > 53.7 µg/mL

Form field solubility kinetic, entry CC1CCCN(S(=O)(=O)c2cc3c4c(c2)CCN4C(=O)CC3)C1 (configuration not stated) : > 50.2 µg/mL

* * *

Consider the following compounds and their measured solubility kinetic readings.
- MEASUREMENT_CONTEXT: buffer; pH 7.4; 200.0 µM

Just so you know, measured solubility kinetic for Cc1ccc(Cn2c(CCC(=O)O)nc3ncccc3c2=O)cc1 came out at > 48.5 µg/mL

* * *

Below is a list of entries, each paired with its recorded solubility kinetic value.
- MEASUREMENT_CONTEXT: buffer; pH 7.4; 200.0 µM

Examples with answers:
Memo: O=C1NCC(COc2cccc3ccccc23)O1 (stereo unspecified) , reported solubility kinetic: > 36.5 µg/mL

Sure, the documented solubility kinetic for COC(=O)c1csc(S(=O)(=O)N2CCOCC2)c1OC is > 48.2 µg/mL

The molecule identified as CCCCCn1c(N2CCCC2)nc2c1c(=O)n(C)c(=O)n2C registered its solubility kinetic at > 47.9 µg/mL

More entries:
Measured solubility kinetic of Cc1nc(C)c(C)nc1C : < 0.1 µg/mL

For COc1ccc(OC)c(NC(=O)c2ccno2)c1 the molecule record lists solubility kinetic as > 37.2 µg/mL

So, CCOc1ccccc1C1CC(=O)Nc2cc(C)c(C)cc21 (stereo unspecified) ? Its solubility kinetic was < 0.6 µg/mL

* * *

- MEASUREMENT_CONTEXT: buffer; pH 7.4; 200.0 µM
// map solubility kinetic to label using low group (below 3 µg/mL), middle group (3 µg/mL to below 20 µg/mL), high group (20 µg/mL or more)

Assign a bin to NC(=O)COC(=O)c1sc2ccccc2c1Cl middle group

Hi, small favor: classify CC(=O)Nc1ccc(NC(C)=O)c(NC2OCC(O)C(O)C2O)c1 (stereo not drawn) by its solubility kinetic when you get a moment. high group

Record CC(C)CC(=O)NC(c1ccccc1)c1c(O)ccc2ccccc12 (stereo not drawn) — which class? low group

Exercise: read the entry COc1ccccc1NC1=Nc2cccc3cccc1c23 and state which class it falls under. middle group

Please classify: O=C(NC(=S)Nc1ccccc1N1CCCC1)c1ccco1 high group

Which category does the recorded solubility kinetic put O=C(COC(=O)CNC(=O)c1ccccc1)NC(=O)NC1CCCCC1 in? high group

Classify this molecule: O=C(/C=C/c1ccccc1Cl)OCC(=O)N1CCCC1 high group

Kindly identify the class of Cc1c(-c2nc3ccccc3[nH]2)cnn1C . high group

Entry Cc1ccc(N=Cc2c(O)c3ccccc3n(C)c2=O)cc1 belongs to which category? middle group

Class (by measured solubility kinetic) for O=C1c2nccnc2C(=O)N1c1ccc(C(F)(F)F)cc1 high group

New cases:
Band of N/C(=N\c1nc2ccccc2o1)NC(=O)c1cccc(Br)c1 ? low group

Please indicate the class for COc1ccc(CSc2nc3ccccc3c(=O)[nH]2)cc1F based on its solubility kinetic. low group

Hi, small favor: classify O=C(Nc1cccc(S(=O)(=O)N2CCOCC2)c1)C12CC3CC(CC(C3)C1)C2 by its solubility kinetic when you get a moment. low group

Just checking, what class would you give Cc1cccc(C)c1NC(=O)CNC(=O)COC(=O)c1ccc(Cl)s1 here? high group

* * *

- MEASUREMENT_CONTEXT: buffer; pH 7.4; 200.0 µM
MEASUREMENT_NAME: solubility kinetic

Known results for compounds:
Measured solubility kinetic, O=C(CSc1nnc(-c2ccncc2)o1)Nc1nncs1 : > 48.1 µg/mL

// solubility kinetic value for CCCNC(=O)CN1C(=O)NC(CC)(c2ccc(F)cc2)C1=O (stereo unspecified) : > 48.2 µg/mL

Summary for this compound, Cc1noc(C)c1C(=O)Nc1ccc(C#N)cc1 : solubility kinetic is > 36.2 µg/mL

Reported solubility kinetic for O=C(COC(=O)C1CC1)Nc1ccc(Cl)cn1 was > 38.2 µg/mL

Note to self: solubility kinetic recorded for FC(F)Oc1ccc(NC(=S)NCc2nc3ccccc3[nH]2)cc1 was > 52.3 µg/mL

Switching to the query record.
Quick note, solubility kinetic for CCOc1ccccc1Nc1nnc(SCC(=O)NC2CC2)s1 landed at > 52.6 µg/mL

* * *

- MEASUREMENT_CONTEXT: buffer; pH 7.4; 200.0 µM
MEASUREMENT_NAME: solubility kinetic

molecule COc1ccccc1NS(=O)(=O)c1cccc(NS(=O)(=O)c2cc(C(=O)O)ccc2OC)c1 , solubility kinetic observed: > 73.9 µg/mL

Looking up O=C(NCC1CC1)c1cc([N+](=O)[O-])cc([N+](=O)[O-])c1 , I see its solubility kinetic listed as > 39.8 µg/mL

solubility kinetic in this record for O=C(CN1CCOCC1)Nc1ccc(Br)cc1 : > 44.9 µg/mL

* * *

// solubility kinetic lookup, one value per entry
- MEASUREMENT_CONTEXT: buffer; pH 7.4; 200.0 µM

# annotated cases, reported solubility kinetic shown
Summary for this compound, Cc1c(C(=O)c2ccccc2)c(=O)n(C)c(=O)n1C : solubility kinetic is > 38.7 µg/mL

Measured solubility kinetic of CC1(C)CC(=O)C=C(NCCc2c[nH]c3ccccc23)C1 : > 42.4 µg/mL

Field solubility kinetic (entry CC(C)Oc1ccccc1NC(=O)CSc1nccn1C ) reads > 45.8 µg/mL

Just so you know, measured solubility kinetic for C=CCNC(=O)c1ccccc1SCc1c(C)noc1C came out at > 45.4 µg/mL

More entries:
Entry under test: Cc1ccc(S(=O)(=O)NC2CC(C)(C)NC(C)(C)C2)cc1C . Its solubility kinetic was > 48.7 µg/mL

CC1(C)CCC(=O)N(c2ccc(OC(F)(F)F)cc2)C1=O yielded solubility kinetic of > 45.2 µg/mL

Recorded result, S=C(NCCCn1ccnc1)Nc1cccc(Cl)c1 , solubility kinetic: > 44.2 µg/mL

Entry COc1ccc(C(=O)NCC(=O)OCC(=O)N2CC(C)OC(C)C2)cc1OC (stereo unspecified) ; solubility kinetic = > 59.2 µg/mL

Lab note: measured solubility kinetic of CN(C)S(=O)(=O)c1cccc(NC(=O)NCCCl)c1 was > 45.9 µg/mL

Documented solubility kinetic of CCC(CC)C(=O)N1CCN(c2ccccc2)CC1 : > 39.1 µg/mL

# solubility kinetic of COc1ccc(S(=O)(=O)NCCC(=O)OCC(=O)NC2CC2)cc1 = > 53.5 µg/mL

* * *

- MEASUREMENT_CONTEXT: buffer; pH 7.4; 200.0 µM
Label Condition met when solubility kinetic is at or above 20 µg/mL; otherwise label Condition not met.

Worked examples follow.
Does solubility kinetic meet or surpass 20 µg/mL for Cc1snc(SCc2ccc(F)cc2)c1C#N ? Condition not met

In plain terms: is recorded solubility kinetic at least 20 µg/mL for CN(c1ccccc1)S(=O)(=O)c1ccc(C(=O)NCc2ccc(F)cc2)cc1 ? Condition not met

Tell me whether solubility kinetic is at least 20 µg/mL here: CCC(C)(C)NC(=O)C1CCCN1C(=O)NC1CCCCC1 (stereo not drawn) Condition met

solubility kinetic >= 20 µg/mL for Cc1c(C(=O)NCc2ccccn2)oc2c(Cl)cccc12 ? Condition met

State whether the measured solubility kinetic reaches 20 µg/mL, counting equality as reaching it, for Cc1ccc(NC(=O)CCNC(=O)c2ccc(Cl)cc2)nc1 Condition not met

Is solubility kinetic for O=C(NCCCNC(=O)c1cc(Cl)ccc1Cl)c1ccco1 at or above 20 µg/mL? Condition met

Could you verify whether the entry COC(=O)c1ccc(OCC(O)CNC2CCCC2)cc1.Cl (stereo not drawn) shows solubility kinetic of no less than 20 µg/mL? Condition met

Is solubility kinetic for C/C(=N\NC(=O)c1ccncc1)c1cccs1 at or above 20 µg/mL? Condition met

Item Cc1ccc(F)cc1NC(=O)N1CCCN(c2ccc(C(F)(F)F)cn2)CC1 with solubility kinetic of 20 µg/mL or above? Condition not met

API: above_or_equal(metric=solubility kinetic, cutoff=20 µg/mL) for item CCCOc1nc(C)cc(COC)c1C(N)=O Condition met

New cases:
Tell me whether solubility kinetic is at least 20 µg/mL here: O=C(Oc1ccc([N+](=O)[O-])cc1)C1CC(=O)N(c2ccc3c(c2)OCCO3)C1 (stereo not drawn) Condition met

Textbook exercise: given the entry COc1cc2c(cc1OC)CN(C(=O)c1ccc(Cl)c(S(=O)(=O)N3CCCC3)c1)CC2 , state whether its solubility kinetic is greater than or equal to 20 µg/mL. Condition met

Entry Cc1ccc(C)c(S(=O)(=O)NCc2ccc(C(=O)N3CCOCC3)cc2)c1 : is its solubility kinetic no less than 20 µg/mL? Condition met

Check if solubility kinetic >= 20 µg/mL (inclusive). Item: CCOC(=O)c1c(C)n(C)c2cc([N+](=O)[O-])c(O)c([N+](=O)[O-])c12 Condition met

Confirm if solubility kinetic reported for the compound CN1CCN(C(=O)/C(C#N)=C/c2ccc(F)cc2)CC1.Cl is 20 µg/mL or above. Condition met

Could you tell me if the measured solubility kinetic of COc1cc(C=O)ccc1OCC(=O)Nc1ccc2c(c1)OCO2 reaches 20 µg/mL or more? Condition not met

Please tell me: is the compound Cc1ccc(OCCN2CCCC2)cc1.O=C(O)C(=O)O at or over 20 µg/mL in terms of solubility kinetic? Condition met

Kindly determine if solubility kinetic recorded for CN(c1ccc(F)cc1)S(=O)(=O)c1ccc(Cl)c(C(=O)OCC(=O)NC2CC2)c1 is above or exactly 20 µg/mL. Condition not met

Has Cc1ccc(CNC(=S)NCc2ccncc2)cc1 a recorded solubility kinetic greater than or equal to 20 µg/mL? Condition met
